Cited source: patent US9920063B2

Test system: NCI-H226
Measured metric: CC50 (µM)
Write the answer as a number in µM, unit excluded.

Asked: Fill in: CC50 of C=C1C(=O)O[C@H]2[C@H]1CC/C(COC(=O)c1cc3ccccc3[nH]1)=C\CC[C@@]1(C)O[C@@H]21 [BS-1-28] is ___
Given back: 7.01

====

Test system: OVCAR-8
Measured metric: CC50 (µM)
Lab book: enter the figure in µM, no units written.

Asked: Could you tell me which CC50 is on file for C=C1C(=O)O[C@H]2[C@H]1CC/C(COC(=O)c1cc3ccccc3[nH]1)=C\CC[C@@]1(C)O[C@@H]21 ?
Given back: 64.6

====

Test system: NCI-H522
Measured metric: CC50 (µM)
Dear colleague, please return just the value in µM, with no unit written.

Asked: Fill in: CC50 of C=C1C(=O)O[C@H]2[C@H]1CC/C(COC(=O)c1cc3ccccc3[nH]1)=C\CC[C@@]1(C)O[C@@H]21 is ___
Given back: 6.72

====

Tested on: MCF7
Measured metric: CC50 (µM)
Response body: numeric value in µM, unit text excluded.

Asked: Any idea what CC50 came out for C=C1C(=O)O[C@H]2[C@H]1CC/C(COC(=O)c1cc3ccccc3[nH]1)=C\CC[C@@]1(C)O[C@@H]21 on MCF7?
Given back: 6.69

====

Tested on: AML 052308 cells
Experiment: Antileukemic activity against AML 052308 cells in culture
Details: AML 052308 cells
Measured metric: Fold more potent than parthenolide

                                   compound         result
0  C=C1C(=O)O[C@H]2[C@H]1CC/C(COC(=O)c1cc3ccccc3[nH]1)=C\CC[C@@]1(C)O[C@@H]21 [BS-1-28]  around 3 fold
1  C=C1C(=O)O[C@H]2[C@H]1CC/C(COC(=O)Cc1c[nH]c3ccccc13)=C\CC[C@@]1(C)O[C@@H]21 [BS-2-32]  around 3 fold
2  C=C1C(=O)O[C@H]2[C@H]1CC/C(COC(=O)c1ccc3cc[nH]c3c1)=C\CC[C@@]1(C)O[C@@H]21 [BS-2-05]  around 3 fold
3  C=C1C(=O)O[C@H]2[C@H]1CC/C(COC(=O)/C=C/c1c[nH]c3ccccc13)=C\CC[C@@]1(C)O[C@@H]21 [BS-2-04]        10 fold

====

System: RXF 393
Measured metric: CC50 (µM)
Field format: number, assumed µM, no unit text.

Asked: Give CC50 (RXF 393) of the following compound: C=C1C(=O)O[C@H]2[C@H]1CC/C(COC(=O)c1cc3ccccc3[nH]1)=C\CC[C@@]1(C)O[C@@H]21
Given back: 6.23

====

Test system: OVCAR-4
Measured metric: CC50 (µM)
Reply with just the number (in µM).

Asked: Hi! What's the reported CC50 for C=C1C(=O)O[C@H]2[C@H]1CC/C(COC(=O)c1cc3ccccc3[nH]1)=C\CC[C@@]1(C)O[C@@H]21 on OVCAR-4?
Given back: 8.43

====

Test system: UO-31
Measured metric: CC50 (µM)
Numeric answer only, unit µM assumed.

Asked: Hi! What's the reported CC50 for C=C1C(=O)O[C@H]2[C@H]1CC/C(COC(=O)c1cc3ccccc3[nH]1)=C\CC[C@@]1(C)O[C@@H]21 on UO-31?
Given back: 5

====

System: M14
Measured metric: CC50
Record the result as number plus unit.

Asked: Could you share what CC50 was measured for C=C1C(=O)O[C@H]2[C@H]1CC/C(COC(=O)c1cc3ccccc3[nH]1)=C\CC[C@@]1(C)O[C@@H]21 , tested on M14?
Given back: 5.76 µM

====

Tested on: MOLT-4
Measured metric: CC50

Asked: Item: C=C1C(=O)O[C@H]2[C@H]1CC/C(COC(=O)c1cc3ccccc3[nH]1)=C\CC[C@@]1(C)O[C@@H]21 [BS-1-28] Test system: MOLT-4 Read-out: CC50 Value: ?
Given back: > 100 µM

====

Test system: SW-620
Assay: NCI human tumor cell line panel, Colon Cancer
Conditions: read-out: LC50, NCI five dose
Measured metric: CC50 (µM)
# value in µM; strip the unit string

Asked: Fill in the blank: the reported CC50 of C=C1C(=O)O[C@H]2[C@H]1CC/C(COC(=O)c1cc3ccccc3[nH]1)=C\CC[C@@]1(C)O[C@@H]21 [BS-1-28] is ____.
Given back: 4.47

====

Tested on: HOP-92
Measured metric: CC50 (µM)
Provide the reading as a plain figure in µM.

Asked: State the recorded CC50 for this entry: C=C1C(=O)O[C@H]2[C@H]1CC/C(COC(=O)c1cc3ccccc3[nH]1)=C\CC[C@@]1(C)O[C@@H]21
Given back: 4.66

====

Target or system AML 052308 cells; recorded quantity Fold more cytotoxic than MMB.
Measured metric: Fold more cytotoxic than MMB

                              line_notation  experimental_target         result
0  C=C1C(=O)O[C@H]2[C@H]1CC/C(COC(=O)c1cc3ccccc3[nH]1)=C\CC[C@@]1(C)O[C@@H]21     AML 052308 cells  around 7 fold
1  C=C1C(=O)O[C@H]2[C@H]1CC/C(COC(=O)Cc1c[nH]c3ccccc13)=C\CC[C@@]1(C)O[C@@H]21     AML 052308 cells  around 7 fold
2  C=C1C(=O)O[C@H]2[C@H]1CC/C(COC(=O)c1ccc3cc[nH]c3c1)=C\CC[C@@]1(C)O[C@@H]21     AML 052308 cells  around 7 fold

====

Test system: U251
Measured metric: CC50 (µM)
# number only, unit µM dropped from output

Asked: Recorded CC50 for C=C1C(=O)O[C@H]2[C@H]1CC/C(COC(=O)c1cc3ccccc3[nH]1)=C\CC[C@@]1(C)O[C@@H]21 [BS-1-28] with U251, please?
Given back: 8.68

====

Test system: SK-MEL-28
Measured metric: CC50 (µM)
Express the result in µM but write the number alone.

Asked: Report CC50 for C=C1C(=O)O[C@H]2[C@H]1CC/C(COC(=O)c1cc3ccccc3[nH]1)=C\CC[C@@]1(C)O[C@@H]21 [BS-1-28] tested on SK-MEL-28.
Given back: 5.74

====

Tested on: SF-295
Measured metric: CC50 (µM)
Give just the numeric value; µM need not be written.

Asked: Quick one: CC50 for C=C1C(=O)O[C@H]2[C@H]1CC/C(COC(=O)c1cc3ccccc3[nH]1)=C\CC[C@@]1(C)O[C@@H]21 ?
Given back: 12

====

Tested on: SK-MEL-5
Measured metric: CC50 (µM)
Please reply with the bare figure in µM and do not write the unit itself.

Asked: Any idea what CC50 came out for C=C1C(=O)O[C@H]2[C@H]1CC/C(COC(=O)c1cc3ccccc3[nH]1)=C\CC[C@@]1(C)O[C@@H]21 on SK-MEL-5?
Given back: 5.12

====

Test system: SNB-75
Measured metric: CC50 (µM)
// note: answer is a bare numeric in µM

Asked: Which value of CC50 has been reported for C=C1C(=O)O[C@H]2[C@H]1CC/C(COC(=O)c1cc3ccccc3[nH]1)=C\CC[C@@]1(C)O[C@@H]21 in the records?
Given back: 4.72

====

Test system: cord blood cells
Assay: Toxicity against cord blood cells
Type: cell-based
Measured metric: EC50 (nM)
Enter your answer as a number in nM; do not include the unit.

Asked: Which EC50 value is on record for C=C1C(=O)O[C@H]2[C@H]1CC/C(COC(=O)/C=C/c1c[nH]c3ccccc13)=C\CC[C@@]1(C)O[C@@H]21 [BS-2-04] ?
Given back: 750

====

System: SNB-19
Measured metric: CC50 (µM)
Entry rule: numbers only, all in µM.

Asked: Given C=C1C(=O)O[C@H]2[C@H]1CC/C(COC(=O)c1cc3ccccc3[nH]1)=C\CC[C@@]1(C)O[C@@H]21 , state its recorded CC50.
Given back: 7.33

====

Tested on: M9 ENL cells
Experiment: cells
Conditions: 24 h
Overview of recorded EC50 for various compounds
Write your answer as a measured quantity: the number, then the unit.

// below: answered compounds
>>> print(df.to_string())
                                   compound  experimental_target  measured_metric  result
0  C=C1C(=O)O[C@H]2[C@H]1CC/C(COC(=O)c1ccc(OC)cc1OC)=C\CC[C@@]1(C)O[C@@H]21 [JVM 3-44]         M9 ENL cells             EC50  3.5 µM
1  C=C1C(=O)O[C@H]2[C@H]1CC/C(C(=O)N1CCN(C)CC1)=C\CC[C@@]1(C)O[C@@H]21 [JVM 3-46]         M9 ENL cells             EC50   28 µM
2  C=C1C(=O)O[C@H]2[C@H]1CC/C(COC(=O)c1ccc(Br)cc1)=C\CC[C@@]1(C)O[C@@H]21 [JVM 3-30]         M9 ENL cells             EC50  3.3 µM

Could you now consider this next compound?
Asked: I have this compound here, C=C1C(=O)O[C@H]2[C@H]1CC/C(COC(=O)c1ccc3cc[nH]c3c1)=C\CC[C@@]1(C)O[C@@H]21 [BS-2-05] , and I need its recorded EC50.
Given back: 2.5 µM
